Reported viability is given for each of the following compounds.
assay: MRP1 drug-resistance reversers in H69AR cells – cell-based, doxorubicin co-treatment, primary screen (AID 602); settings: H69AR cells, CellTiter-Glo, 72 h; measured here: cytotoxicity without doxorubicin; at 10 µM
Out of some 85,000 compounds screened, about 35 (0.04%) were called active. For the sample, actives were picked, then their nearest neighbours and some compounds at random.
State just the number; it will be interpreted in %.

CCOC(=O)Cc1csc(NC(=O)CSc2nnc(-c3cccnc3)n2Cc2ccco2)n1 | 100
COc1ccccc1C(c1nnnn1C(C)(C)C)N1CCN(Cc2ccccc2)CC1 (stereo unspecified) | 85.2
CCCc1nc2sc3c(c2c(=O)n1NC(=O)CCCl)CCCC3 | 36

The reported viability of the compound Cc1nnc(OCC(=O)NCCC2=CCCCC2)c2ccccc12 was 101
